Where do these numbers come from? They come from patent US20240425475A1.

Below, each entry is listed with its recorded pIC50.
- Study System: human Cereblon WT GST-tagged protein (Homo sapiens (Human), UniProt Q96SW2)
- Sequence (Q96SW2 whole entry): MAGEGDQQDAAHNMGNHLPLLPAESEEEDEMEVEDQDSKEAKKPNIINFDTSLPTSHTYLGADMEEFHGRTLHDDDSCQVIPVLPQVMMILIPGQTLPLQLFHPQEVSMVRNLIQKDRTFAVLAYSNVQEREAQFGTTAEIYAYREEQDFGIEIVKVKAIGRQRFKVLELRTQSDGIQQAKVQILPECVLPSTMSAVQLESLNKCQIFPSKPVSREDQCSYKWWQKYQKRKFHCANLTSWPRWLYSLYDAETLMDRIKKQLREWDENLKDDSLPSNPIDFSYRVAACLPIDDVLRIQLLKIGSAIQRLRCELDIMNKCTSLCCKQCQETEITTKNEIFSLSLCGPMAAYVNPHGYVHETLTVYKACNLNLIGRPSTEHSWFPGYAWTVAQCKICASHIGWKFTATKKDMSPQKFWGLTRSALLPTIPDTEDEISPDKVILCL
pIC50: −log10 of the molar value.
Measure Name: pIC50

{"Compound": "Cc1nc2cccc(SCCCN3CCN(CCC45CC6CC(CC(C6)C4)C5)CC3)c2c(=O)n1C1CCC(=O)NC1=O (stereo not shown) [GT-03306]", "Measure Name": "pIC50", "Observed": 5.80}
{"Compound": "Cc1nc2cccc(N3C4CC3CN(CCC35CC6CC(CC(C6)C3)C5)C4)c2c(=O)n1C1CCC(=O)NC1=O (stereo not shown) [GT-04231]", "Measure Name": "pIC50", "Observed": 5.49}
{"Compound": "Cc1nc2cccc(NCCOCCNC34CC5CC(CC3C5)C4)c2c(=O)n1C1CCC(=O)NC1=O (stereo not shown) [GT-02389]", "Measure Name": "pIC50", "Observed": 6.11}
{"Compound": "Cc1nc2cccc(SCCN3CCN(CCC45CC6CC(CC(C6)C4)C5)CC3)c2c(=O)n1C1CCC(=O)NC1=O (stereo not shown) [GT-03305]", "Measure Name": "pIC50", "Observed": 5.92}
{"Compound": "Cc1nc2cccc(CCCCCCCCN3CC4CC(C3)O4)c2c(=O)n1C1CCC(=O)NC1=O (stereo not shown) [GT-02800]", "Measure Name": "pIC50", "Observed": 5.47}
{"Compound": "Cc1nc2cccc(CN3CCN(C(=O)C45CC6CC(CC(C6)C4)C5)CC3)c2c(=O)n1C1CCC(=O)NC1=O (stereo not shown) [GT-03317]", "Measure Name": "pIC50", "Observed": 5.45}
{"Compound": "Cc1nc2cccc(NCCCCCCCNC(C)C34CC5CC(CC(C5)C3)C4)c2c(=O)n1C1CCC(=O)NC1=O (stereo not shown) [GT-02768]", "Measure Name": "pIC50", "Observed": 6.17}

====

- Test system: Human diffuse large B-cell lymphoma cell line: TMD8
- Procedure Details: Half inhibitory concentration (IC50) against tumor cells, CCK-8 cell viability
- Assay type: cell-based
- Condition Parameters: 96 h treatment
- Procedure: The tumor cells used herein were cultured in a cell culture medium listed in table 2 at 37° C. in an incubator with 5% CO2. Prior to experimentation, all cells used were correctly identified by STR profiling, and tested negative for mycoplasma through routine screenings. [table] […] After the cells were treated with the compounds of the present disclosure for a period of time, cell viability was measured according to the instructions provided with the CCK-8 kit. […]
pIC50: −log10 of the molar value.
Criterion: pIC50 meeting or surpassing 7. Met: Y. Not met: N.

{"Compound": "Cc1nc2cccc(NCCCCCCCN3CCC4(CC3)CC(F)(F)C4)c2c(=O)n1C1CCC(=O)NC1=O (stereo not shown)", "Assigned Label": "N"}
{"Compound": "Cc1nc2cccc(NCCCCCCCNC(C)C34CC5CC(CC(C5)C3)C4)c2c(=O)n1C1CCC(=O)NC1=O (stereo not shown)", "Assigned Label": "N"}
{"Compound": "Cc1nc2cccc(NCCCCCCCNC34CC5CC(CC(C5)C3)C4)c2c(=O)n1C1CCC(=O)NC1=O (stereo not shown)", "Assigned Label": "Y"}
{"Compound": "Cc1nc2cccc(SCCCN3CCN(C(c4ccc(F)cc4)c4ccc(F)cc4)CC3)c2c(=O)n1C1CCC(=O)NC1=O (stereo not shown)", "Assigned Label": "N"}
{"Compound": "Cc1nc2cccc(N3CC(C)N(CCC45CC6CC(CC(C6)C4)C5)C(C)C3)c2c(=O)n1C1CCC(=O)NC1=O (stereo not shown)", "Assigned Label": "N"}
{"Compound": "Cc1nc2cccc(NCCCCCCCN[C@@]34CC5CC(C)(C[C@@](C)(C5)C3)C4)c2c(=O)n1C1CCC(=O)NC1=O (stereo partly shown)", "Assigned Label": "N"}
